These entries and their values trace back to ChEMBL document CHEMBL1143113.

- target.or.test.system: Histone deacetylase 5 (Homo sapiens) (UniProt Q9UQL6)
- Sequence (Q9UQL6 whole entry): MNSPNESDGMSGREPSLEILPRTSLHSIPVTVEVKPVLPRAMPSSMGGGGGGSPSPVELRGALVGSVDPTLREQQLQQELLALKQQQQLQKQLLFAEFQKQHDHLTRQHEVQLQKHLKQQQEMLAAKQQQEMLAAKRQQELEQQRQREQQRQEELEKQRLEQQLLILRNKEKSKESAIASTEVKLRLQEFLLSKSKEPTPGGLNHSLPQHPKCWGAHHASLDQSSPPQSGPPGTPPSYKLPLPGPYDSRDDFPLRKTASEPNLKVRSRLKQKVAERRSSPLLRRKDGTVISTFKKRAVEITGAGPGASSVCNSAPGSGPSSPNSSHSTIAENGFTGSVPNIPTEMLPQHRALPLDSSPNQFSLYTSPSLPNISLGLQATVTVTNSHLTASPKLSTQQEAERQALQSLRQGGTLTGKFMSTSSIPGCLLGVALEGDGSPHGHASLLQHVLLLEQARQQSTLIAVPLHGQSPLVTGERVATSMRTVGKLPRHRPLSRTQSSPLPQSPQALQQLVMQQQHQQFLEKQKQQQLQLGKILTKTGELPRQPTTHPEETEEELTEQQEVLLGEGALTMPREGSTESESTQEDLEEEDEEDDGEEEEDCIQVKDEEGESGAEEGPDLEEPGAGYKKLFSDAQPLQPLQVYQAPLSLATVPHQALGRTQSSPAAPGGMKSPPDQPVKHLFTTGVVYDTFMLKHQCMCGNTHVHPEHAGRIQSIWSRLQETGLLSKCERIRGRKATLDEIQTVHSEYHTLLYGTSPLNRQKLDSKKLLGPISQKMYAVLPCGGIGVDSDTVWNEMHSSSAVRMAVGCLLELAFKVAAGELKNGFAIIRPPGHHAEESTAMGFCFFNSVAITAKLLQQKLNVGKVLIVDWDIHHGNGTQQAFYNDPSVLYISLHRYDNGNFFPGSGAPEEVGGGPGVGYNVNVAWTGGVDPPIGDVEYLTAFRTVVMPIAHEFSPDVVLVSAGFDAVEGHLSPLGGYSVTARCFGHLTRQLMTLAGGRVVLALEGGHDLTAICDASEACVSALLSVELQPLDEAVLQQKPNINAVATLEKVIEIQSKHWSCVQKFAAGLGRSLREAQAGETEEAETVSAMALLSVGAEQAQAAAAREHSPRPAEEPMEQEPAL
- assay.procedure: Activity against HDAC5
Calls of active or inactive are those of the source. The rule behind the calls is not given here.
measured.parameter: Activity

Nc1ccccc1NC(=O)c1ccc(CNc2nc(NCCN3CCOCC3)nc(NC3Cc4ccccc4C3)n2)cc1 inactive
Nc1nc(NCc2ccc(C(=O)Nc3ccccc3N)cc2)nc(NC2Cc3ccccc3C2)n1 inactive
Nc1nc(NCc2ccc(C(=O)Nc3ccccc3N)cc2)nc(NC2CCCC2)n1 inactive
Nc1nc(NCc2ccc(C(=O)Nc3ccccc3N)cc2)nc(N2CCOCC2)n1 inactive

----------
# IC50 annotations
- target.or.test.system: Histone deacetylase 1 (Homo sapiens, UniProt Q13547)
- Sequence (Q13547 whole entry): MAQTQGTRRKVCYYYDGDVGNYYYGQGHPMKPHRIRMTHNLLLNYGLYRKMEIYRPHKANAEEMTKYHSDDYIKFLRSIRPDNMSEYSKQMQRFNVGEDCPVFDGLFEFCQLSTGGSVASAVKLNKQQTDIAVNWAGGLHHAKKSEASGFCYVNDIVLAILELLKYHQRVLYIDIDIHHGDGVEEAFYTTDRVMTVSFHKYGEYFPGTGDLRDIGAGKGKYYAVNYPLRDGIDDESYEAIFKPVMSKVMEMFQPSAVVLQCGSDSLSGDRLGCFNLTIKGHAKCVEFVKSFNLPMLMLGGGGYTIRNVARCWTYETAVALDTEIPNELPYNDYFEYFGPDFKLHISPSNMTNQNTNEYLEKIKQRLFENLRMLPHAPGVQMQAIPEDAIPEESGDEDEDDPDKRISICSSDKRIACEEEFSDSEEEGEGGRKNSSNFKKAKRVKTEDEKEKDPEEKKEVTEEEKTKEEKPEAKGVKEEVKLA
- assay.procedure: Inhibition of human recombinant HDAC1
Just the number in nM, nothing appended.

Nc1nc(NCCc2ccccc2)nc(NCc2ccc(C(=O)Nc3ccccc3N)cc2)n1 100
COc1cc(OC)nc(NCc2ccc(C(=O)Nc3ccccc3N)cc2)n1 100
Nc1ccccc1NC(=O)c1ccc(CNc2ncccn2)cc1 700

# molecule "COc1ccc(NCc2ccc(C(=O)Nc3ccccc3N)cc2)cn1" ; its IC50 = 100
